Study system: human Adenosine A1 receptor (Homo sapiens (Human), UniProt P30542)
Sequence (P30542 whole entry): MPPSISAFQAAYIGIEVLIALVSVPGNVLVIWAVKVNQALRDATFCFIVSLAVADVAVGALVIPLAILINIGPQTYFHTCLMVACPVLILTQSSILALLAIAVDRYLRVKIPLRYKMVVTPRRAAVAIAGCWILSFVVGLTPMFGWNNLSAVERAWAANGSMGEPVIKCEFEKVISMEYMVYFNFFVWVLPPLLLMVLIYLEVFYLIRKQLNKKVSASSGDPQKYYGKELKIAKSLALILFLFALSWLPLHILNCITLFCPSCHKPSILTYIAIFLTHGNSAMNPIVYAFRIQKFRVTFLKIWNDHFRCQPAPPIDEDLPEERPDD
Assay procedure: Adenosine receptor TR-FRET binding assay (A1)
Settings: inhibition of binding of 100 nM CA200645, CHO cell membranes
Entries and their pKi values follow.
Reminder that pKi means the negative base-10 logarithm of the concentration expressed in mol/L.

- CC(=O)NCc1cc(-c2sc(NC(=O)N3CC4(COC4)C3)nc2-c2cccc(C#N)c2)cc(C)n1: 6.88
- Cc1cc(-c2sc(NC(=O)N3CC(=O)N[C@H](C)C3)nc2-c2cccc(C#N)c2)cc(C)n1: 7.36
- Cc1cc(-c2sc(NC(=O)N3CCC4(CCNC(=O)C4)CC3)nc2-c2cccc(C#N)c2)cc(C)n1: 7.07
- Cc1cc(-c2sc(NC(=O)N3CCN4C(=O)OCCC4C3)nc2-c2cccc(C#N)c2)cc(C)n1 (stereo not drawn): 7.46
- Cc1cc(-c2sc(NC(=O)N3CCC4(CCNC4=O)CC3)nc2-c2cccc(C#N)c2)cc(C)n1: 6.89

Q: What does the data say about its pKi? Entry: Cc1cc(-c2sc(NC(=O)N3CC[S+]([O-])CC3)nc2-c2cccc(C#N)c2)cc(C)n1
Ans: 7.82

Q: What does the data say about its pKi? Entry: COC1(C#N)CCN(C(=O)Nc2nc(-c3cccc(C#N)c3)c(-c3cc(C)nc(CO)c3)s2)CC1
Ans: 7.32

Q: What does the data say about its pKi? Entry: Cc1cc(-c2sc(NC(=O)N3C4CCC3CNC4)nc2-c2cccc(C#N)c2)cc(C)n1
Ans: 7.24

Q: What does the data say about its pKi? Entry: [2H]C([2H])([2H])c1cc(-c2sc(NC(=O)N3CCC(C)(C#N)CC3)nc2-c2cccc(C#N)c2)cc(C([2H])([2H])[2H])n1
Ans: 7.52

Q: What does the data say about its pKi? Entry: CCN1CCN(C(=O)Nc2nc(-c3cccc(C#N)c3)c(-c3cc(C)nc(C)c3)s2)CC1
Ans: 6.73

Q: What does the data say about its pKi? Entry: Cc1cc(-c2sc(NC(=O)N3CC(O)C3)nc2-c2cccc(C#N)c2)cc(C)n1
Ans: 8.15

Q: What does the data say about its pKi? Entry: Cc1cc(-c2sc(NC(=O)N3CCC(C)(C#N)CC3)nc2-c2cccc(C#N)c2)cc(Cl)n1
Ans: 6.94

Q: What does the data say about its pKi? Entry: Cc1cc(-c2sc(NC(=O)N3CCC(C#N)CC3)nc2-c2cccc(C#N)c2)cc(CO)n1
Ans: 7.92

Q: What does the data say about its pKi? Entry: Cc1cc(-c2sc(NC(=O)N3CC[C@H]3C)nc2-c2cccc(C#N)c2)cc(C)n1
Ans: 7.62

Q: What does the data say about its pKi? Entry: COC1(C#N)CCN(C(=O)Nc2nc(-c3cccc(C#N)c3)c(-c3cc(C)nc(C)c3)s2)CC1
Ans: 7.46

* * *

Study system: human Adenosine A1 receptor (Homo sapiens (Human), UniProt P30542)
Assay procedure: Adenosine receptor TR-FRET binding assay (A1)
Settings: inhibition of binding of 100 nM CA200645, CHO cell membranes
Reported endpoint: Ki (nM)
Could you give me the number in nM? Just the number is fine.

As a guide, the following entries are already answered.
• Cc1cc(-c2sc(NC(=O)N3CC(C#N)(CO)C3)nc2-c2cccc(C#N)c2)cc(C)n1 = 27
• Cc1cc(-c2sc(NC(=O)N3CC[S+]([O-])CC3)nc2-c2cccc(C#N)c2)c(F)c(C)n1 = 43
• Cc1cc(-c2sc(NC(=O)N3CCC(C)(C#N)CC3)nc2-c2cccc(C#N)c2C)cc(C)n1 = 248

Continue with the next compound.
Q: Can you look up Ki on human Adenosine A1 receptor (Homo sapiens (Human), UniProt P30542) for Cc1cc(-c2sc(NC(=O)N3CCC(N4CCNC4=O)CC3)nc2-c2cccc(C#N)c2)cc(C)n1 ?
Ans: 97

* * *

Study system: human Adenosine A1 receptor (Homo sapiens (Human), UniProt P30542)
Assay procedure: Adenosine receptor TR-FRET binding assay (A1)
Settings: inhibition of binding of 100 nM CA200645, CHO cell membranes
Method: Biological Example 1—Adenosine Receptor Time-Resolved Fluorescence Resonance Energy Transfer (TRFRET) Binding Assay […] Serial dilution (1:3 dilutions) of test compounds in neat DMSO and transfer of a 400 nL sample of test compound into the assay plate was carried out using the Mosquito (TTP Labtech, UK). […] Total and non-specific binding of CA200645 was determined in the absence and presence of 10 μM XAC, respectively. […]
Reported endpoint: Ki (µM)
Could you give me the number in µM? Just the number is fine.

As a guide, the following entries are already answered.
• Cc1cc(-c2sc(NC(=O)N3CCC(C#N)(C#N)CC3)nc2-c2cccc(C#N)c2)cc(CO)n1 [Example 9.8] = 0.024
• Cc1cc(-c2sc(NC(=O)N3CCC(C(=O)NCCO)CC3)nc2-c2cccc(C#N)c2)cc(C)n1 [Example 6.33] = 0.051
• Cc1cc(-c2sc(NC(=O)N3CCC4(CC3)COC4)nc2-c2cccc(C#N)c2)cc(C)n1 [Example 6.10] = 0.014

Continue with the next compound.
Q: What does the data say about its Ki? Entry: Cc1cc(-c2sc(NC(=O)N3CC(N(C)C)C3)nc2-c2cccc(C#N)c2)cc(C)n1 [Example 6.115]
Ans: 0.177

* * *

Test system: human PBMCs
Assay procedure: CD3/CD28 stimulated IL-2 release NECA reversal assay in human PBMCs
Assay type: cell-based
Settings: PBMC, 1 uM NECA, 24 hours, IL-2 in culture supernatant
Description: Biological Example—CD3/CD28 Stimulated IL-2 Release NECA Reversal Assay in Human PBMCs Blood is drawn from healthy volunteers using sodium citrate as the anticoagulant (0.3% final concentration). After centrifugation of the blood over Histopaque-1077, PBMCs are collected from the Histopaque/plasma interface and washed twice in PBS (300 g for 10 mins at room temp). […]
Entries and their log10 IC50 values follow.
Scale: decimal log of IC50, IC50 in nM.

• Cc1cc(-c2sc(NC(=O)N3CC4(CCO4)C3)nc2-c2cccc(C#N)c2)cc(C)n1 [Example 6.93] = 0.11
• Cc1cc(-c2sc(NC(=O)N3CC(C)(O)C3)nc2-c2cccc(C#N)c2)c(F)c(C)n1 [Example 6.67] = 1.03

Q: What does the data say about its log10 IC50? Entry: Cc1cc(-c2sc(NC(=O)N3CCN(C)C(=O)C3)nc2-c2cccc(C#N)c2)cc(C)n1 [Example 4.15]
Ans: 1.01

Q: What does the data say about its log10 IC50? Entry: Cc1cc(-c2sc(NC(=O)N3CC(C#N)C3)nc2-c2cccc(C#N)c2)cc(C)n1 [Example 4.26]
Ans: -0.40

Q: What does the data say about its log10 IC50? Entry: Cc1cc(-c2sc(NC(=O)N3CCC4(CCC(=O)N4)CC3)nc2-c2cccc(C#N)c2)cc(C)n1 [Example 6.45]
Ans: 0.97

Q: What does the data say about its log10 IC50? Entry: Cc1cc(-c2sc(NC(=O)N3CCC(C)(C#N)C3)nc2-c2cccc(C#N)c2)cc(C)n1 (racemic) [Example 27]
Ans: -0.05

Q: What does the data say about its log10 IC50? Entry: Cc1cc(-c2sc(NC(=O)N3CCN4C(=O)CCC4C3)nc2-c2cccc(C#N)c2)cc(C)n1 (stereo not drawn) [Example 6.18]
Ans: 0.70

Q: What does the data say about its log10 IC50? Entry: Cc1cc(-c2sc(NC(=O)N3CC[C@@H](C(C)(C)O)C3)nc2-c2cccc(C#N)c2)cc(CO)n1 [Example 9.2]
Ans: 0.43

* * *

Study system: human Adenosine A1 receptor (Homo sapiens (Human))
Assay procedure: Adenosine receptor TR-FRET binding assay (A1)
Settings: inhibition of binding of 100 nM CA200645, CHO cell membranes
Reported endpoint: pKi
Reminder that pKi means the negative base-10 logarithm of the concentration expressed in mol/L.

- Cc1cc(-c2sc(NC(=O)N3CCN(C(C)(C)CO)CC3)nc2-c2cccc(C#N)c2)cc(C)n1: 6.26
- Cc1cc(-c2sc(NC(=O)N3CC(N4CCCC4)C3)nc2-c2cccc(C#N)c2)cc(C)n1: 6.62
- Cc1cc(-c2sc(NC(=O)N3CCC(C(=O)O)CC3)nc2-c2cccc(C#N)c2)cc(C)n1: 6.66
- Cc1cc(-c2sc(NC(=O)N3CCNCC34CCC4)nc2-c2cccc(C#N)c2)cc(C)n1: 6.91
- Cc1cc(-c2sc(NC(=O)N3CCN[C@H](C#N)C3)nc2-c2cccc(C#N)c2)cc(C)n1: 7.89
- [2H]C([2H])([2H])c1cc(-c2sc(NC(=O)N3CC4(COC4)C3)nc2-c2cccc(C#N)c2)cc(C([2H])([2H])[2H])n1: 7.51

Q: What does the data say about its pKi? Entry: Cc1cc(-c2sc(NC(=O)N3CCN(C4COC4)CC3)nc2-c2cccc(C#N)c2)cc(C(F)(F)F)n1
Ans: 6.95
